- Target Or Test System: Lp-PLA2 in human plasma (Homo sapiens, UniProt Q13093)
- Construct: This assay may detect the activity of Lp-PLA2 in human plasma; from tissue; host or cells: pooled human plasma
- Sequence (Q13093 22-441): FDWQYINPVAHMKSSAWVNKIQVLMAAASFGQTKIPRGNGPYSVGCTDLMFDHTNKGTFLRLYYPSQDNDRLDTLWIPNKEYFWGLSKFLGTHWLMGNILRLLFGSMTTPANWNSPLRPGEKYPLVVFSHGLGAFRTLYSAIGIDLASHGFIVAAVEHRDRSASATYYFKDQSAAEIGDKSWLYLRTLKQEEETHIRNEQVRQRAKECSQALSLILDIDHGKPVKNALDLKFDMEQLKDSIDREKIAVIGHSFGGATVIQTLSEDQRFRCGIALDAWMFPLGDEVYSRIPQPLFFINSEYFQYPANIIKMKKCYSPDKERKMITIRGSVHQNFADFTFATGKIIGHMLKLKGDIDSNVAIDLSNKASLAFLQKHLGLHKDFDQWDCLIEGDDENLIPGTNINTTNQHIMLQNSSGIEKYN
- Assay Method Text: Lp-PLA2 human plasma assay (Thio-PAF assay)
- Type: biochemical
- Conditions: pooled human plasma, 2-thio-PAF substrate; read-out: pIC50 in the thio-PAF assay (converted)
Structures can show the parent of a compound that is named as a salt.
Observable: IC50

The following compounds have reported results that may help.
| Compound | Assay Result |
| --- | --- |
| CN1CCn2c1cc(OCc1cc(F)c(Oc3ccc(C(F)(F)F)cc3)c(F)c1)nc2=O | ≤ 1000 nM |
| CN1CCn2c1cc(OCc1ccc(Oc3ccnc(C(F)(F)F)c3)c(C#N)c1)nc2=O | ≤ 100 nM |
| O=c1nc(OCc2ccc(Oc3ccc(F)c(C(F)(F)F)c3)c(F)c2)cc2n1CCN2 | ≤ 100 nM |
| CN1CCn2c1cc(OCc1ccc(Oc3cc(F)c(F)c(F)c3)c(C#N)c1)nc2=O [Example E38, trifluoroacetic acid salt] | ≤ 1000 nM |
| CN1CCn2c1cc(OCc1ccc(Oc3ccc(F)c(F)c3)c(C#N)c1)nc2=O | ≤ 100 nM |
| N#Cc1cc(COc2cc3n(c(=O)n2)CCN3)ccc1Oc1cccc(C(F)(F)F)c1 | ≤ 100 nM |

Now let's try a different one.
Look up IC50: CN1CCn2c1cc(OCc1ccc(Oc3ccnc(Cl)c3)c(F)c1)nc2=O
≤ 1000 nM
